// provenance: patent US20230157952A1

The entries below come with measured Purity values attached.
Assay: Stability of the pure HPDs (dry solid) at 25° C./RH 60%
Type: physicochemical
Conditions: pure HPD, 25° C./RH 60%, 18 month
Would you mind answering with just the numeric figure?

Example entries begin here.
CCN(CC)CCOC(=O)C(C)c1ccc(CC(C)C)cc1.Cl (racemic) | 98.0
CC(C)Cc1ccc([C@@H](C)C(=O)OC[C@@H]2CCCN2)cc1.Cl | 98.0
CC(C)Cc1ccc([C@@H](C)C(=O)OCCN(C)C)cc1.Cl (racemic) | 97.9
Br.CCN(CC)CCOC(=O)C(C)c1ccc(-c2ccccc2)c(F)c1 (centres unmarked) | 98.1

Please find the next compound below.
Exercise: Specify Purity for CCN(CC)CCOC(=O)c1ccccc1OC(C)=O.O=C(O)c1ccccc1 and stop.
Solution: 97.6
